Measured abundance fitness accompanies every entry in the list below.
B1: Ankyrin-3, residues 4094 to 4171; numbered along this chain, Q12955 (parent)
chain: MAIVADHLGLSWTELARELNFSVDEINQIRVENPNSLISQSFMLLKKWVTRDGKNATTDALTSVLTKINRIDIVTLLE

- Variants of: B1
- method: abundance fitness (aPCA) (normalised: wild type 0, dead -1); higher = more abundant; growth selection in yeast, the domain comes from the species named
- test parameters: Homo sapiens
quantity kind: abundance fitness

T62C -0.292
F42I -0.03
E32N -0.074
M43F -0.265
E14A -0.082
S36T -0.297
M1V -0.151
V49P -1.02
T66I -0.088
S11I -0.422
R30W -0.453
F21E -0.997
F42M 0.102
T57Y -0.14
V4M -0.963
V23F -0.142
D6L -0.352
S63E -0.075
W12E -0.903
A56T -0.517
S11V -0.84
L10C -0.016
R51T -1.02
H7C -0.637
L10Q 0.04
V74F -1.08
S63C -0.11
K67T -0.228
I68G -0.916
W48M -0.635
M43E 0.056
V4I -0.169
T13H -0.178
E78L -0.326
P34Q -0.067
N69S -0.29
W12C -0.931
N33T -0.091
L19T -0.927
K67N -0.48
L37G -0.413
L61M -0.223
T57D -0.108
F42S 0.174
I3H -0.523
D59V -0.117
V31Y 0.057
S41E -0.912
V4W -1.01
D6M -0.299
N27R -0.11
R30V -0.172
I38Q -0.133
I26C -0.561
V31S -0.006
T62M 0.06
R17W -0.101
R51Q -0.994
V31M -0.191
I68A -0.868
G9E -0.273
Q40S -0.312
A60R -0.081
E14V -0.02
V74K -0.255
K67H -0.247
I38R 0.089
V49N 0.057
I26D -0.886
R70P -0.74
E32G -0.202
N55S -0.021
N35G -0.065
